biological target: S. mansoni TGR (Schistosoma mansoni, UniProt Q962Y6); assay: Kinetic analysis of recombinant S. mansoni TGR with substrates; conditions: substrate of TGR (20 nM), 25 °C, pH 7.4, 100 μM NADPH
Sequence (Q962Y6 1-598): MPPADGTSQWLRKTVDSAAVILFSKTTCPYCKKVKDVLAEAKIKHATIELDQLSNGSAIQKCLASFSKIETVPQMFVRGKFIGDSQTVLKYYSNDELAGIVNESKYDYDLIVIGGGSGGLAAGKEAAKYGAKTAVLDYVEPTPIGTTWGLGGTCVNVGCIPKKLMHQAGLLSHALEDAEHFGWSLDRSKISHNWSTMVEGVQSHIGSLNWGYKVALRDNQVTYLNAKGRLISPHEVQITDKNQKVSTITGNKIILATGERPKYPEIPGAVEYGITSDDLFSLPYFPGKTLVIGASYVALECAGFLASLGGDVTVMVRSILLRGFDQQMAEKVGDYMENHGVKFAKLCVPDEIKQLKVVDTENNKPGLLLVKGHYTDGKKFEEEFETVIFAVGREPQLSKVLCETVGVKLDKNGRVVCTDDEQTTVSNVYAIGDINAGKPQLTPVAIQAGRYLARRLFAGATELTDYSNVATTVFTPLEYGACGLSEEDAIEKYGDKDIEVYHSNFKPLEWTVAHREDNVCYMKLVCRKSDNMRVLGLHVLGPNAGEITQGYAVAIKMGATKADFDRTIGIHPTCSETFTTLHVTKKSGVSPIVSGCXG
Rule: kcat below 10 s⁻¹ gives Condition met, anything at or above gives Condition not met.

compound	tested-on	class-assignment
O=C(O)c1cc(SSc2ccc([N+](=O)[O-])c(C(=O)O)c2)ccc1[N+](=O)[O-]	S. mansoni TGR (Schistosoma mansoni, UniProt Q962Y6)	Condition not met
O=C(O)CCCC[C@@H]1CCSS1 (racemic)	S. mansoni TGR (Schistosoma mansoni, UniProt Q962Y6)	Condition met
O=[Se]([O-])[O-].[Na+].[Na+] [Na2SeO3, sodium selenite]	S. mansoni TGR (Schistosoma mansoni, UniProt Q962Y6)	Condition met
OCCSSCCO [HED, β-hydroxyethyl disulfide]	S. mansoni TGR (Schistosoma mansoni, UniProt Q962Y6)	Condition not met
CC(C)(C)OO [t-Butyl-OOH, tert-butyl hydroperoxide]	S. mansoni TGR (Schistosoma mansoni, UniProt Q962Y6)	Condition not met
NC(=O)C1=CN([C@@H]2O[C@H](COP(=O)(O)OP(=O)(O)OC[C@H]3O[C@@H](n4cnc5c(N)ncnc54)[C@H](OP(=O)(O)O)[C@@H]3O)[C@@H](O)[C@H]2O)C=CC1	S. mansoni TGR (Schistosoma mansoni, UniProt Q962Y6)	Condition not met
O=C1OC(C(O)CO)C(=O)C1=O (stereo not drawn) [DHAA, dehydroascorbic acid]	S. mansoni TGR (Schistosoma mansoni, UniProt Q962Y6)	Condition met
COC1=C(OC)C(=O)C(C/C=C(\C)CC/C=C(\C)CC/C=C(\C)CC/C=C(\C)CC/C=C(\C)CC/C=C(\C)CC/C=C(\C)CC/C=C(\C)CC/C=C(\C)CCC=C(C)C)=C(C)C1=O	S. mansoni TGR (Schistosoma mansoni, UniProt Q962Y6)	Condition met
OO	S. mansoni TGR (Schistosoma mansoni, UniProt Q962Y6)	Condition met
